System: HSV-1
Test: HSV Antiviral (ELISA) Assay
Assay type: cell-based, herpes simplex virus type 1
Details: Human alphaherpesvirus 1, Vero, Vero cells, HSV-1; read-out: IC50 Ug/ml HSV
measurement label: IC50

| compound | result value |
| --- | --- |
| COc1cc(NC(=S)Nc2ccc(NC(C)=O)cc2)c(OC)cc1Cl [Example 110] | 12 µg/mL |
| CC(=O)Nc1ccc(NC(=S)Nc2ccc(N3CCCC4CCCCC43)c(Cl)c2)cc1 (stereo not drawn) [Example 282] | > 10 µg/mL |
| CC(=O)Nc1ccc(NC(=S)Nc2cc(Cl)c(O)c(Cl)c2)cc1 [Example 108] | 50 µg/mL |
| COc1cc(N2CCCC2)c(NC(=S)Nc2ccc(NC(C)=O)cc2)cc1Cl [Example 228] | 3 µg/mL |
| CC(=O)Nc1ccc(NC(=S)Nc2cccc(Cl)c2)cc1 [Example 816] | 20 µg/mL |
| CC(=O)Nc1ccc(NC(=S)Nc2ccc(NC(=O)CN3CCCCC3)c(Cl)c2)cc1 [Example 363] | > 10 µg/mL |
| CCOC(=O)Nc1ccc(NC(=S)Nc2ccc(NC(C)=O)cc2)cc1Cl [Example 313] | > 10 µg/mL |
| COc1ccc(NC(=S)Nc2ccc(NC(C)=O)cc2)cc1 [Example 104] | > 50 µg/mL |
| CCOc1ccc(NC(=S)Nc2ccc(NC(C)=O)cc2)cc1Cl [Example 268] | > 10 µg/mL |
